Please go through the items and note down their pKd.
tested target: HLA-B*15:01
assay explanation: IEDB peptide-MHC binding, purified MHC/direct/fluorescence; filed as Kd, often an IC50 or EC50 that approximates it; bounds were set here for any values at or beyond the usual limits of such assays
test context: source organism: Bacillus anthracis
pKd: −log10 of the molar value.

[ask] Could you please provide reported pKd for MSDIFASEV ? Thanks!
[reply] ≤ 4.70

[ask] Could you please provide reported pKd for WFREDRSPV ? Thanks!
[reply] ≤ 4.70

* * *

tested target: HLA-B*08:01
assay explanation: IEDB peptide-MHC binding, purified MHC/direct/fluorescence; filed as Kd, often an IC50 or EC50 that approximates it; bounds were set here for any values at or beyond the usual limits of such assays
test context: source organism: Mycobacterium tuberculosis C
attribute measured: Kd (nM)
Give your result in nM as a bare value.

[ask] Recall the reported Kd of FPRYPLNVL on HLA-B*08:01 and write it down.
[reply] 1040
